Listed here: items and their measured pIC50.
target under test: recombinant human MMP13 catalytic domain (CD) (Homo sapiens, UniProt P45452)
Construct: catalytic domain (CD) construct encompassing residues 20-274 (SWISS-PROT P45452)
method notes: MMP-13 catalytic domain FRET enzyme assay
recorded conditions: recombinant human MMP-13 catalytic domain
pIC50: −log10 of the molar value.

Field: example entries. Status: answers known.
COc1cc(CNC(=O)c2cc(C3=NOC(c4ccccn4)C3)nc(C)n2)ccc1F (centres unmarked); 7.00 to 8.00
COc1ccc(CNC(=O)c2cc(C3CC(c4ccccc4)=NO3)nc(C)n2)cc1 (centres unmarked); 6.00 to 7.00

Q. Find the recorded pIC50 belonging to COc1cc(CNC(=O)c2cc(C3=NOC(c4ccc(CO)nc4)C3)nc(C)n2)ccc1F (centres unmarked) and report it.
A. 7.00 to 8.00

Q. Consider next the molecule Cc1nc(C(=O)NCc2ccc(F)c(F)c2)cc(C2=NO[C@H]([C@H]3CO[C@H](CO)CO3)C2)n1 [drawing 952] in the same way.
A. 7.00 to 8.00

Q. Consider next the molecule Cc1nc(C(=O)NCc2ccc(F)c(F)c2)cc(C2=NO[C@H]([C@H]3CO[C@H](CO)CO3)C2)n1 [drawing 953] in the same way.
A. < 6.00

Q. Consider next the molecule COc1cc(CNC(=O)c2cc(C3=NOC([C@H]4CC[C@H](NC(=O)CN(C)C)CC4)C3)nc(C)n2)ccc1F (some centres unmarked) in the same way.
A. 7.00 to 8.00

Q. Consider next the molecule "Cc1nc(C(=O)NCc2ccc3c(c2)NC(=O)CO3)cc(C2=NO[C@H]([C@H]3CC[C@H](NC(=O)[C@H](C)O)CC3)C2)n1" in the same way.
A. > 8.00

Q. Consider next the molecule COc1ccc(CNC(=O)c2cc(C3=NOC(c4ccc(C(N)=O)cc4)C3)nc(C)n2)cc1 (centres unmarked) in the same way.
A. > 8.00
